# Tested on: COLO 205 colon
# ASSAY_REMARKS: NCI-60 one-dose screen, 48 h
# RECORDED_CONDITIONS: 10 µM unless noted
# Experimental: Cells are grown in 96 well plates and exposed to the test compound for 48 hours. Compounds are tested at a single concentration, which is 10^-5 M for most compounds. The reported endpoint is percent growth (GI% or GIPRCNT), where numbers from 0 - 100% represent growth inhibition, and numbers from -100% - 0 represent cell death. For example, a value of 40 represents 60% growth inhibition. A value of 0 means no net growth occurred over the course of the experiment. […]
About 83,000 compounds went through this panel and 20% of them were active in at least one assay; those are over-represented in the sample as a whole. Activity calls are given as the source filed them. The calls were made as follows: active = growth percent below 10; inactive = the rest.
Use one of these outcomes when replying: 1 (yes) (active), 0 (no) (inactive)

Ask: Assay outcome for O=c1c2ccccc2nc(COc2ccccc2)n1NS(=O)(=O)c1ccc(Cl)cc1 : what was it?
Result: 0 (no)

---
Ask: Assay outcome for O=C(CSc1nnc(-c2ccc3nc(-c4ccccc4)[nH]c3c2)o1)Nc1ccc(C(=O)/C=C/c2ccccc2)cc1 : what was it?
Result: 0 (no)

Ask: Assay outcome for CCCCCc1ccc(S(=O)(=O)Nc2cc(-c3csc(NC(=O)CN4CCN(C)CC4)n3)ccc2N2CCN(C)CC2)cc1 : what was it?
Result: 1 (yes)

Ask: Assay outcome for COc1ccc2[nH]cc(/C=N/Nc3nc4ccccc4s3)c2c1 : what was it?
Result: 0 (no)

Ask: Assay outcome for Oc1ccc(CSc2nnc(-c3ccc(Cl)cc3)n2-c2ccccc2)c2cccnc12 : what was it?
Result: 0 (no)

Ask: Assay outcome for Cn1ccnc1C(=O)/C=C/C=C/c1ccc(C(=O)Nc2ccc(F)cc2)cc1 : what was it?
Result: 0 (no)

Ask: Assay outcome for CCn1c(SCC(=O)Nc2cccc(C(=O)/C=C/c3cc(OC)c(OC)c(OC)c3)c2)nc2ccccc2c1=O : what was it?
Result: 0 (no)

Ask: Assay outcome for Cc1ccc2sc3c(c2c1)OC(N)=C(C#N)C3c1cccc(F)c1 (centres undefined) : what was it?
Result: 1 (yes)

Ask: Assay outcome for Nc1ncc(-c2ccc(NS(=O)(=O)c3ccc(Cl)c(Cl)c3)cc2)[nH]1 : what was it?
Result: 0 (no)

Ask: Assay outcome for O=C(NNc1nc2cc(F)ccc2n2c(CO)ccc12)c1cnccn1 : what was it?
Result: 1 (yes)

Ask: Assay outcome for O=C(CN1CCN(c2cc(=O)n(-c3ccccc3)c3ccccc23)CC1)Nc1cccc(C(F)(F)F)c1 : what was it?
Result: 0 (no)

Ask: Assay outcome for COc1ccc(-c2cc(-c3ccc(Cl)cc3)c(C#N)c(=O)n2Cc2ccc(C(=O)O)cc2)cc1 : what was it?
Result: 0 (no)

Ask: Assay outcome for Cc1ccc2c(c1)C13C(=C2Br)CCCN1C(=O)c1ccccc13 (centres undefined) : what was it?
Result: 0 (no)

Ask: Assay outcome for O=C1Nc2ccccc2/C1=C/c1ccc(COCC2CO2)n1-c1ccc(O)cc1 (centres undefined) : what was it?
Result: 0 (no)

Ask: Assay outcome for O=C1CCCC2=C1C(c1c[nH]c3ccc(Br)cc13)Cc1cc(Br)ccc1N2 (centres undefined) : what was it?
Result: 0 (no)

Ask: Assay outcome for Cc1cc2ncc(-c3cc4ccccc4c(N4CCN(C)CC4)n3)nc2cc1C : what was it?
Result: 1 (yes)

* * *

# Tested on: MDA-MB-435 melanoma
# ASSAY_REMARKS: NCI-60 one-dose screen, 48 h (100 = growth as untreated, 0 = no growth, -100 = all killed)
# RECORDED_CONDITIONS: 10 µM unless noted
This is part of a sample that, as a whole, favours compounds with a hit. Of some 83,000 tested, about 20% had one in any assay.
Please respond with reported growth for every item in the list.
One number for each entry, in %.

Ask: Recorded growth of O=S(=O)(NCCNc1nccc(-n2cnc3ccccc32)n1)c1ccc(Cl)cc1 , please.
Result: 100

Ask: Recorded growth of Cc1ccc(CSc2nc(-c3ccc(Cl)cc3)c(C#N)c(N3CCNCC3)n2)cc1 , please.
Result: 81.2

Ask: Recorded growth of CN1CCC(n2cc(Nc3ncc4c(=O)n(-c5c(Cl)cccc5Cl)cc(Br)c4n3)cn2)CC1 , please.
Result: 5.4

# batch: return growth for each of the 5 molecules below
1. NS(=O)(=O)c1ccc(-n2cc(-c3cccc(NC(=O)c4ccc(N5CCOCC5)c(C(F)(F)F)c4)c3)nn2)cc1
2. CC(=O)Nc1cccc(Nc2nc(N[C@H](C)c3ccccc3)c3ccccc3n2)c1
3. N#Cc1cn(Cc2ccc(Cl)cc2Cl)c(C(=O)c2ccc(Br)cc2)c1N
4. CCCCCCCn1cc2c(N[C@H](C)c3ccccc3)ncnc2n1
5. Cc1cc(-c2ccc(Cl)cc2)n(Cc2nnc(SCC(=O)Nc3ccc(S(N)(=O)=O)cc3)n2C2CCCCC2)n1

Result:
1: 62.9; 2: 24.3; 3: 95.6; 4: 103; 5: 109

Ask: Recorded growth of Cc1cccc(/C=C/C(=O)Nc2ncc(Cc3cccc(C)c3)s2)c1 , please.
Result: -70.2

* * *

Please respond with reported growth for every item in the list.
# Tested on: MALME-3M melanoma
# ASSAY_REMARKS: NCI-60 one-dose screen, 48 h (100 = growth as untreated, 0 = no growth, -100 = all killed)
# RECORDED_CONDITIONS: 10 µM unless noted
The panel holds about 83,000 compounds, 20% with a hit somewhere; the sample as a whole holds those more often. Activity calls are given as the source filed them. Rule for the calls: active = growth percent below 10; inactive = the rest.

Ask: // lookup growth | system=MALME-3M melanoma | key= O=C1[C@H]2Cc3c([nH]c4ccccc34)[C@@H](c3ccc(Cl)cc3)N2C(=O)CN1C1CCN(Cc2ccccc2)CC1
Result: 72.9% (inactive)

Ask: // lookup growth | system=MALME-3M melanoma | key= O=C(Nc1cccc(Cl)c1)Nc1nc2ccc([N+](=O)[O-])cc2o1
Result: -4.16% (active)

Ask: // lookup growth | system=MALME-3M melanoma | key= COc1ccc(/C=N/NC2=NC3C(S2)N(C)C(=O)N3C)cc1 (stereo not given)
Result: 39% (inactive)

Ask: // lookup growth | system=MALME-3M melanoma | key= Nc1cc(-c2c[nH]c3ccc(Br)cc23)nc2cc(-c3c[nH]c4ccc(Br)cc34)nn12
Result: 45.6% (inactive)

# batch: return growth for each of the 5 compounds below
1. COc1ccc(-c2nn(-c3ccc(S(C)(=O)=O)cc3)cc2/C=N/O)cc1
2. COc1cc(-c2nc3sccn3c2-c2ccnc(S(C)(=O)=O)n2)ccc1F
3. NS(=O)(=O)c1ccc(Nc2nc(N/N=C/c3ccc(Cl)cc3)nc(Nc3ccccc3)n2)cc1
4. N/C(=N\C(N)=N\c1nc2ccccc2s1)c1cccc(F)c1
5. N/C(=N\C(N)=N\c1nc2ccccc2s1)c1ccc(C(F)(F)F)cc1

Result:
1. 103% (inactive)
2. 4.8% (active)
3. 88.3% (inactive)
4. 91.5% [5 µM] (inactive)
5. 101% (inactive)

# batch: return growth for each of the 7 compounds below
1. COc1ccc(OC)c(-c2nc(SCC(=O)c3ccc(Br)cc3)nc(Nc3ccc(S(N)(=O)=O)cc3)c2C#N)c1
2. CCOC(=O)c1c(Nc2ccccc2)nn2c(-c3ccc(Cl)cc3)ccnc12
3. CCNC(=O)N1CCc2cc(OC)c(OCCc3ccc(OC)cc3)cc2C1c1ccc(Cl)cc1C (stereo not given)
4. CC/C(=C/c1c(O)cccc1OC)c1ccc2c(OC)cccc2[o+]1
5. O=C(CNc1nc(-c2cccc([N+](=O)[O-])c2)cs1)Nc1cccc(Cl)c1
6. CC(=O)C1=C(C)NC(NN)=NC1c1cccc(Cl)c1 (stereo not given)
7. C=CCn1c(-c2nc3ccc(C(=C(C#N)C#N)c4ccccc4)cc3[nH]2)cc2cc(Br)ccc21

Result:
1: 50.2% (inactive); 2: 84% (inactive); 3: 60.4% (inactive); 4: 105% (inactive); 5: 104% (inactive); 6: 104% (inactive); 7: 84.1% (inactive)

# batch: return growth for each of the 4 compounds below
1. O=c1[nH]c2ccccc2cc1CSc1ccccc1Nc1nccc(-c2ccc(Cl)cc2)n1
2. O=S(=O)(NCCCNc1nccc(-n2cnc3ccccc32)n1)c1ccc(C(F)(F)F)cc1
3. CC1(COc2ccc3ncc(C#Cc4cncc(C(=O)Nc5cccc(C(F)(F)F)c5)c4)n3n2)COC1
4. CC(=O)c1ccc(Nc2nc(SCC(C)C)nc(-c3ccc(F)cc3)c2C#N)cc1

Result:
["86.1% (inactive)", "98.4% (inactive)", "71.1% (inactive)", "114% (inactive)"]

* * *

# Test system: UACC-257 melanoma
# ASSAY_REMARKS: NCI-60 one-dose screen, 48 h (100 = growth as untreated, 0 = no growth, -100 = all killed)
# RECORDED_CONDITIONS: 10 µM unless noted
About 83,000 compounds went through this panel and 20% of them were active in at least one assay; those are over-represented in the sample as a whole.
PROPERTY_MEASURED: growth (%)
Answers are plain numbers, in %.

Observe how each entry below is paired with its result.
Ask: Recorded growth of O=C(CSc1nnc(-c2ccc(Cl)cc2)n1-c1ccccc1)Nc1ccc(Br)cc1 , please.
Result: 50.3

Ask: Recorded growth of O=C1C(c2ccccc2)=C(N2CCc3ccccc32)OC1(Cl)Cl , please.
Result: 91.4

Ask: Recorded growth of COc1ccc(NCc2cn(-c3ccc(C(=O)O)cc3)nc2-c2cc(C(F)(F)F)cc(C(F)(F)F)c2)cc1 , please.
Result: 105

Ask: Recorded growth of COc1cc2c(cc1OC)C(Sc1ccc(F)cc1)c1c(nc(N)c(C#N)c1N)O2 (centres undefined) , please.
Result: -25

Ask: Recorded growth of CC(=O)N1C(=S)NC(=O)C1CC(C)C (centres undefined) , please.
Result: 104

# batch: return growth for each of the 4 molecules below
1. CN(C)CCN(C)c1ccc2ncc(C#Cc3cncc(C(=O)Nc4ccc(CN5CCN(C)CC5)c(C(F)(F)F)c4)c3)n2n1
2. O=C(Nc1ccc2c(ccn2Cc2ccccn2)c1)c1ccnnc1
3. COCCNc1ccc2ncc(C#Cc3cncc(C(=O)Nc4ccc(CN5CCN(C)CC5)c(C(F)(F)F)c4)c3)n2n1
4. CC1(C)CC[C@]2(CN)CC[C@]3(C)C(=CC[C@@H]4[C@@]5(C)CCCNC(C)(C)[C@@H]5CC[C@]43C)[C@H]2C1

Result:
1. 107
2. 106
3. -46.4
4. 117
